Test system: NCI-H520
experiment.notes: Compound was evaluated for growth inhibition against NCI-H520 cells using cellular assay
Assay type: functional
assay.conditions: Homo sapiens
Field: GI50. Provide a value for each of the molecules that follow.
Give bare numbers, in nM.

>>> value_reported("COc1cc([C@@H]2c3[nH]c4ccccc4c3C[C@H]3COC(=O)N32)cc(OC)c1O")
120
>>> value_reported("COc1cc([C@@H]2c3[nH]c4cc5ccccc5cc4c3C[C@H]3COC(=O)N32)cc(OC)c1O")
4000

Please turn your attention to the following entry.
Lab note: need GI50 for "COc1cc([C@@H]2c3[nH]c4ccc5ccccc5c4c3C[C@H]3COC(=O)N32)cc(OC)c1O" on NCI-H520, anyone have it?
800

Each recorded value in this set is attributed to ChEMBL document CHEMBL1130805.
